Recorded values, source the RNAGym collection of RNA variant scans (doi:10.1101/gr.219683.116).

B1: mRNA-splicing (parent)
chain: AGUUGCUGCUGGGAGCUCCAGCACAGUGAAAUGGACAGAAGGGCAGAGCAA

- Variants of: B1
- TEST: exon inclusion enrichment index; higher = more inclusion; WT1 exon 5 minigene, HEK293
# binarize exon inclusion enrichment index: threshold 0.2 inclusive, high side yes, low side no

In [3]: df
Out[3]:
                               var  category
 0           C6A U7A C9A U10A G34U        no
 1      C6A U7A C9A U10A A30G A31C        no
 2       G5A C6G U7G C9A C24G A25U        no
 3                       C19A A20U       yes
 4   G5A C6U U7A G8U C9A A47U G48C        no
 5      C6A U7C C9A U10C C24G A25U       yes
 6                       G12U G13A       yes
 7  G5C C6U G8C C9U U10C A25C G26C       yes
 8        G5A C6U U7A G8U C9A C44G        no
 9   G5A C6U U7A G8U C9A C44A A45C       yes
10        G2C U3C C6A U7C C9A U10C       yes
11      G5C C6G U7C U10C A20C G21A       yes
12                         U4C G5A        no
13           G5U G8U C9U G43U C44A        no
14      G5C C6G U7C U10C G33U G34A       yes
15           G5A U7C G8A U10C G48C       yes
16                 G5A U7C G8A C9A       yes
17                       C16G U17A       yes
18           C6A U7C C9A U10C A20U       yes
19            C6A U7C G8A C9G U10C       yes
20           G5U G8U C9U A35G C36G        no
21                G5U G8U C9U G33U        no
22           G5U G8U C9U U27A G28A        no
23            G5A C6G U7G C9A A39G        no
24                G5U G8U C9U A40G        no
25     U3C U4A G5A C6U U7A G8U C9A        no
26           G5A U7C G8A U10C U17C       yes
27            U3A C6A U7A C9A U10A       yes
28            U4C G5A U7C G8A U10C       yes
29           G5C C6G U7C U10C C44A       yes
30   G5A C6U U7A G8U C9A C36G A37G        no
31      G5C C6G U7C U10C G33A G34U       yes
32       G5A C6G U7G C9A U10C G11C        no
33                     G5A G8U C9A        no
34            G5C C6U U7A C9U U10C       yes
35                             U3A       yes
36             G2U G5A C6G U7G C9A        no
37       G5A C6G U7G C9A G43U C44A        no
38                       G38U A39C        no
39  G5C C6U G8C C9U U10C A37C G38U       yes
40                G5U G8U C9A U10G        no
41        G5A C6U U7A G8U C9A G33A        no
